Ref: patent US4489089A

system under test: thromboxane synthetase (Rattus norvegicus, UniProt P49430)
Construct: The platelets were isolated by centrifuging the PRP for 10 minutes at 1060×g; endogenous in cells; host or cells: washed platelets from arterial blood of Okamoto-Aoki spontaneously hypertensive rats (Taconic Farms)
Sequence (P49430 whole entry): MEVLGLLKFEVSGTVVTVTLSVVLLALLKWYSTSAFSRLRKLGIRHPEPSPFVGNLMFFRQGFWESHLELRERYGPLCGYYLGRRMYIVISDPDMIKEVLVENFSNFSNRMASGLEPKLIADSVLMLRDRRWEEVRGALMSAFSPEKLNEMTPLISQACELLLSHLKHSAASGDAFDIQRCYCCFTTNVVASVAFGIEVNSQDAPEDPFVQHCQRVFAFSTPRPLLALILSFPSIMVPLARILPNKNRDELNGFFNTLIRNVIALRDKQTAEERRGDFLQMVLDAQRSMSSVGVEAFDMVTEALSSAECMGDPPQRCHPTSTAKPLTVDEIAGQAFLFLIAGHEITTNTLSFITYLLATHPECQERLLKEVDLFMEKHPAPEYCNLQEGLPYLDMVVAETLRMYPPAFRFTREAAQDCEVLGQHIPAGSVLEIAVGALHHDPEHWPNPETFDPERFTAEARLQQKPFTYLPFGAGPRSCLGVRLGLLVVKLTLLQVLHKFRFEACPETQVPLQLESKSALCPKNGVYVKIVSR
test details: inhibition of thromboxane (TX) formation in rat platelets, TXB2 determined by radio-immunoassay (RIA)
Type: cell-based, Okamoto-Aoki spontaneously hypertensive rats (SHR)
condition context: 10^-4 M; SHR washed platelets; 10 minutes at 37° C.
experimental readout: inhibition at 100 µM (%)

# annotated cases, reported inhibition at 100 µM shown
chemical smiles | inhibition at 100 µM, %
O=C(NCCCn1ccnc1)c1ccoc1 | 78
Cc1ccc(C(=O)NCCCn2ccnc2)s1 | 96
Cc1cn(CCCNC(=O)c2cccs2)cn1 | 51
O=C(NCCCn1ccnc1)c1sc2ccccc2c1Cl | 100
O=C(NCCCn1ccnc1)c1cccs1 | 93

(A) O=C(NCCCn1ccnc1)c1ccc([N+](=O)[O-])o1
(B) Cc1cn(CCCNC(=O)c2sc3ccccc3c2Cl)cn1
**Q:** Between A and B , whose measured inhibition at 100 µM reads higher? Selection: enter the item's label.
**A:** B
(B: 98%, A: 64%)

====

system under test: thromboxane synthetase (Rattus norvegicus, UniProt P49430)
Construct: The platelets were isolated by centrifuging the PRP for 10 minutes at 1060×g; endogenous in cells; host or cells: washed platelets from arterial blood of Okamoto-Aoki spontaneously hypertensive rats (Taconic Farms)
test details: inhibition of thromboxane (TX) formation in rat platelets, TXB2 determined by radio-immunoassay (RIA)
Assay type: cell-based, Okamoto-Aoki spontaneously hypertensive rats (SHR)
condition context: 10^-4 M; SHR washed platelets; 10 minutes at 37° C.
Procedure: Under urethan anesthesia, […]. of arterial blood was collected in one ml. of 3.2% sodium citrate in a polystyrene tube from Okamoto-Aoki spontaneously hypertensive rats (SHR) (Taconic Farms, Germantown, NY) between 19 and 24 weeks in age. The blood was diluted with 3 ml. cold saline and centrifuged at room temperature for 15 minutes at 460×g. The platelet rich plasma (PRP) was separated. […]
experimental readout: inhibition at 100 µM (%)

chemical smiles | inhibition at 100 µM [%]
O=C(NCCCn1ccnc1)c1sc2cc(F)ccc2c1Cl | 96
O=C(NCCCn1ccnc1)c1ccco1 | 97
O=C(C=Cc1cccs1)NCCCn1ccnc1 | 100

(a) O=C(NCCn1ccnc1)c1sc2ccccc2c1Cl
(b) O=C(NCCCn1ccnc1)c1cc2cc(Cl)ccc2s1
**Q:** Sort a and b by inhibition at 100 µM descending and give the first. Identify your selection by its label.
**A:** b

====

system under test: thromboxane synthetase (Rattus norvegicus)
Construct: The platelets were isolated by centrifuging the PRP for 10 minutes at 1060×g; endogenous in cells; host or cells: washed platelets from arterial blood of Okamoto-Aoki spontaneously hypertensive rats (Taconic Farms)
test details: inhibition of thromboxane (TX) formation in rat platelets, TXB2 determined by radio-immunoassay (RIA)
Format: cell-based, Okamoto-Aoki spontaneously hypertensive rats (SHR)
condition context: 10^-4 M; SHR washed platelets; 10 minutes at 37° C.
experimental readout: inhibition at 100 µM (%)

chemical smiles | experimental readout | reading unit | result number
O=C(NCCCn1ccnc1)c1cc2ccccc2o1 | inhibition at 100 µM | % | 97
O=C(C=Cc1ccco1)NCCCn1ccnc1 | inhibition at 100 µM | % | 78
O=C(NCCCn1ccnc1)c1cc(Br)c(Br)s1 | inhibition at 100 µM | % | 100
O=C(NCCCn1ccnc1)c1ccc(Br)o1 | inhibition at 100 µM | % | 82

====

system under test: thromboxane synthetase (Rattus norvegicus, UniProt P49430)
Construct: The platelets were isolated by centrifuging the PRP for 10 minutes at 1060×g; endogenous in cells; host or cells: washed platelets from arterial blood of Okamoto-Aoki spontaneously hypertensive rats (Taconic Farms)
test details: inhibition of thromboxane (TX) formation in rat platelets, TXB2 determined by radio-immunoassay (RIA)
Format: cell-based, Okamoto-Aoki spontaneously hypertensive rats (SHR)
condition context: 10^-4 M; SHR washed platelets; 10 minutes at 37° C.
experimental readout: inhibition at 100 µM (%)

compound | reading unit | inhibition at 100 µM
O=C(NCCCCn1ccnc1)c1sc2ccccc2c1Cl [Example 29] | % | 91
Cc1ccc2c(Cl)c(C(=O)NCCCn3ccnc3)sc2c1 [Example 4] | % | 96
O=C(NCCCn1ccnc1)C(=O)c1cccs1 [Example 18] | % | 73
O=C(NCCCCn1ccnc1)c1cccs1 [Example 31] | % | 95
O=C(NCCCn1ccnc1)c1ccc(Cl)s1 [Example 19] | % | 95

(A) O=C(NCCCCn1ccnc1)c1ccco1 [Example 28]
(B) CCc1nccn1CCCNC(=O)c1sc2ccccc2c1Cl [Example 22]
**Q:** // returns A or B , whichever has the lower inhibition at 100 µM Answer format: the label of the selected item.
**A:** B
